The following compounds are listed with their measured pIC50 values.
target: Gastrin/cholecystokinin type B receptor (Mus musculus) (UniProt P56481)
Please express pIC50 as -log10 of the molar concentration.

[[record]]
compound = "O=C(NC(Cc1c[nH]c2ccccc12)C(=O)OC(CO)Cc1ccccc1)OC1[C@H]2C[C@@H]3C[C@@H](C[C@H]1C3)C2 (stereo partly drawn)"
tested_system = "Gastrin/cholecystokinin type B receptor (Mus musculus) (UniProt P56481)"
reading = 5.72

[[record]]
compound = "COC(=O)CCC(=O)N[C@H](COC(=O)C(C)(Cc1c[nH]c2ccccc12)NC(=O)OC1[C@H]2C[C@@H]3C[C@@H](C[C@H]1C3)C2)c1ccccc1 (stereo partly drawn)"
tested_system = "Gastrin/cholecystokinin type B receptor (Mus musculus) (UniProt P56481)"
reading = 7.15

[[record]]
compound = "CC(Cc1c[nH]c2ccccc12)(NC(=O)OC1[C@H]2C[C@@H]3C[C@@H](C[C@H]1C3)C2)C(=O)SCCc1ccccc1 (stereo partly drawn)"
tested_system = "Gastrin/cholecystokinin type B receptor (Mus musculus) (UniProt P56481)"
reading = 6.03

[[record]]
compound = "CCOC(=O)CCCCCC(=O)N(CCc1ccccc1)CC(C)(Cc1c[nH]c2ccccc12)NC(=O)OC1[C@H]2C[C@@H]3C[C@@H](C[C@H]1C3)C2 (stereo partly drawn)"
tested_system = "Gastrin/cholecystokinin type B receptor (Mus musculus) (UniProt P56481)"
reading = 6.06


[in] Value lookup for pIC50; key = CC(Cc1c[nH]c2ccccc12)(NC(=O)OC1[C@H]2C[C@@H]3C[C@@H](C[C@H]1C3)C2)C(O)CCCc1ccccc1 (stereo partly drawn)
[out] 6.23

[in] Now the compound CC(CCCCc1ccccc1)(Cc1c[nH]c2ccccc12)NC(=O)OC1[C@H]2C[C@@H]3C[C@@H](C[C@H]1C3)C2 (stereo partly drawn)
[out] 5.06

[in] Repeat for the following compound: O=C(NC(CNC(CO)Cc1ccccc1)Cc1c[nH]c2ccccc12)OC1[C@H]2C[C@@H]3C[C@@H](C[C@H]1C3)C2 (stereo partly drawn)
[out] 4.94

[in] For CN(CCc1ccccc1)C(=O)C(C)(Cc1c[nH]c2ccccc12)NC(=O)OC1[C@H]2C[C@@H]3C[C@@H](C[C@H]1C3)C2 (stereo partly drawn) then?
[out] 6.91

* * *

experiment: Selectivity ratio defined as the ratio of IC50(CCK-A)/IC50(CCK-B)
Reported Ratio values for a set of compounds
Number, no unit, nothing else.

[[record]]
compound = "O=C(NC(Cc1c[nH]c2ccccc12)C(=O)NC(CO)Cc1ccccc1)OC1[C@H]2C[C@@H]3C[C@@H](C[C@H]1C3)C2 (stereo partly specified)"
value_kind = "Ratio"
reading = 1.3

[[record]]
compound = "CCOC(=O)CCC(=O)N(CCc1ccccc1)CC(C)(Cc1c[nH]c2ccccc12)NC(=O)OC1[C@H]2C[C@@H]3C[C@@H](C[C@H]1C3)C2 (stereo partly specified)"
value_kind = "Ratio"
reading = 2.3

[[record]]
compound = "CN(C(=O)C(Cc1c[nH]c2ccccc12)NC(=O)OC1[C@H]2C[C@@H]3C[C@@H](C[C@H]1C3)C2)C(CO)Cc1ccccc1 (stereo partly specified)"
value_kind = "Ratio"
reading = 0.74

[[record]]
compound = "CN(CCc1ccccc1)C(=O)C(C)(Cc1c[nH]c2ccccc12)NC(=O)OC1[C@H]2C[C@@H]3C[C@@H](C[C@H]1C3)C2 (stereo partly specified)"
value_kind = "Ratio"
reading = 6.2

[[record]]
compound = "CC(Cc1c[nH]c2ccccc12)(CN(CCc1ccccc1)C(=O)CCC(=O)O)NC(=O)OC1[C@H]2C[C@@H]3C[C@@H](C[C@H]1C3)C2 (stereo partly specified)"
value_kind = "Ratio"
reading = 0.85


For the next question, use this compound.
[in] Fill in the blank: the reported Ratio of O=C(NC(CNC(CO)Cc1ccccc1)Cc1c[nH]c2ccccc12)OC1[C@H]2C[C@@H]3C[C@@H](C[C@H]1C3)C2 (stereo partly specified) is ____.
[out] 0.11

* * *

molecular target: Cholecystokinin receptor type A (Rattus norvegicus)
Value Kind: IC50 (nM)
Give the value, in units of nM, as a plain number.

[[record]]
compound = "COC(=O)CCC(=O)N[C@H](COC(=O)C(C)(Cc1c[nH]c2ccccc12)NC(=O)OC1[C@H]2C[C@@H]3C[C@@H](C[C@H]1C3)C2)c1ccccc1 (stereo partly drawn)"
value_kind = "IC50"
reading = 351


[in] Entry under review: CN(CCc1ccccc1)C(=O)C(C)(Cc1c[nH]c2ccccc12)NC(=O)OC1[C@H]2C[C@@H]3C[C@@H](C[C@H]1C3)C2 (stereo partly drawn) . Reported IC50?
[out] 757

[in] // repeat for CC(Cc1c[nH]c2ccccc12)(NC(=O)OC1[C@H]2C[C@@H]3C[C@@H](C[C@H]1C3)C2)C(=O)SCCc1ccccc1 (stereo partly drawn) and report
[out] 1190

* * *

Catalogue of compounds with associated Ratio
assay: Selectivity ratio defined as the ratio of IC50(CCK-A)/IC50(CCK-B)
Form rule: numeric answer, no unit written next to it.

[[record]]
compound = "CC(Cc1c[nH]c2ccccc12)(NC(=O)OC1[C@H]2C[C@@H]3C[C@@H](C[C@H]1C3)C2)C(=O)SCCc1ccccc1 (some centres undefined)"
reading = 1.3


[in] Please give the measured Ratio for this compound: CC(CCCCc1ccccc1)(Cc1c[nH]c2ccccc12)NC(=O)OC1[C@H]2C[C@@H]3C[C@@H](C[C@H]1C3)C2 (some centres undefined)
[out] 2.2

[in] Let us now turn to CC(Cc1c[nH]c2ccccc12)(NC(=O)OC1[C@H]2C[C@@H]3C[C@@H](C[C@H]1C3)C2)C(=O)OCCc1ccccc1 (some centres undefined)
[out] 2

[in] Further, for CCOC(=O)CCCCCC(=O)N(CCc1ccccc1)CC(C)(Cc1c[nH]c2ccccc12)NC(=O)OC1[C@H]2C[C@@H]3C[C@@H](C[C@H]1C3)C2 (some centres undefined) ?
[out] 4.1

* * *

assay: Selectivity ratio defined as the ratio of IC50(CCK-A)/IC50(CCK-B)
// reported Ratio for each item listed
Answer with a number only.

// solved cases for Ratio follow
[[record]]
molecule = "O=C(NC(Cc1c[nH]c2ccccc12)C(=O)OC(CO)Cc1ccccc1)OC1[C@H]2C[C@@H]3C[C@@H](C[C@H]1C3)C2 (some centres undefined)"
reading = 1.6

[[record]]
molecule = "CC(Cc1c[nH]c2ccccc12)(NC(=O)OC1[C@H]2C[C@@H]3C[C@@H](C[C@H]1C3)C2)/C(S)=N/CCc1ccccc1 (some centres undefined)"
reading = 1.9

[[record]]
molecule = "O=C(NC(Cc1c[nH]c2ccccc12)/C(S)=N/C(CO)Cc1ccccc1)OC1[C@H]2C[C@@H]3C[C@@H](C[C@H]1C3)C2 (some centres undefined)"
reading = 1.2


Then there is this molecule:
[in] Item under review: COC(=O)CCC(=O)N[C@H](COC(=O)C(C)(Cc1c[nH]c2ccccc12)NC(=O)OC1[C@H]2C[C@@H]3C[C@@H](C[C@H]1C3)C2)c1ccccc1 (some centres undefined) . Reported Ratio?
[out] 4.9

The reported measurements were obtained from ChEMBL document CHEMBL1125442.
